target: PI3Kδ (p110δ/p85α) (Homo sapiens, UniProt O00329); construct: purchased Millipore (Bedford, Mass.); test: PI3Kδ scintillation proximity assay; format: biochemical
Sequence (O00329 whole entry): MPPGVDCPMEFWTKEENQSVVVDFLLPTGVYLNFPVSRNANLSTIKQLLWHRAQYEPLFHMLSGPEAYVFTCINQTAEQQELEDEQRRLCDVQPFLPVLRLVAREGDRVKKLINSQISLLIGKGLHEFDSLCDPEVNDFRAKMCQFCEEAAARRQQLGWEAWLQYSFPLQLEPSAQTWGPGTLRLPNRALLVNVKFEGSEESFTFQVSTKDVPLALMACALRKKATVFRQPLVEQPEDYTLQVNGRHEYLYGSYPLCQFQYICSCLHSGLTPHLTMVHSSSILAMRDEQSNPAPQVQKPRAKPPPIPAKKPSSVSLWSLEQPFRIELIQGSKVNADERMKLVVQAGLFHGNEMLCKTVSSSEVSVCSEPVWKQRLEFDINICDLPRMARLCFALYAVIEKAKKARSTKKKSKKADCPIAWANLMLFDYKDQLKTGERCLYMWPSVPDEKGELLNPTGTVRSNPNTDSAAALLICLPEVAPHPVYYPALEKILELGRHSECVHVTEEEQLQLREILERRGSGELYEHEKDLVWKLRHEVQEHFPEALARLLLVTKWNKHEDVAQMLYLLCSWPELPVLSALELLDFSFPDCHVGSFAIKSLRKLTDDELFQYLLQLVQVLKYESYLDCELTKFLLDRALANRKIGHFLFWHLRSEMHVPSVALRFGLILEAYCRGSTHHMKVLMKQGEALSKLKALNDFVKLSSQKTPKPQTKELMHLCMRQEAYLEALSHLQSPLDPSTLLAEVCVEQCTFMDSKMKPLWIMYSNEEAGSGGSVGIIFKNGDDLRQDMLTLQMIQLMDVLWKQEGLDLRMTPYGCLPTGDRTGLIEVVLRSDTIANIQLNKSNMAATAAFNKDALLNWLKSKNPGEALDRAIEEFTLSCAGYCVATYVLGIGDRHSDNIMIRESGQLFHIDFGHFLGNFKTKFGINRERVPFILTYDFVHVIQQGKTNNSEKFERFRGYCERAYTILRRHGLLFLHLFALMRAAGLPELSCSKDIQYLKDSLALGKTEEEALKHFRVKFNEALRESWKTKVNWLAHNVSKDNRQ
Sequence (P27986 whole entry partner): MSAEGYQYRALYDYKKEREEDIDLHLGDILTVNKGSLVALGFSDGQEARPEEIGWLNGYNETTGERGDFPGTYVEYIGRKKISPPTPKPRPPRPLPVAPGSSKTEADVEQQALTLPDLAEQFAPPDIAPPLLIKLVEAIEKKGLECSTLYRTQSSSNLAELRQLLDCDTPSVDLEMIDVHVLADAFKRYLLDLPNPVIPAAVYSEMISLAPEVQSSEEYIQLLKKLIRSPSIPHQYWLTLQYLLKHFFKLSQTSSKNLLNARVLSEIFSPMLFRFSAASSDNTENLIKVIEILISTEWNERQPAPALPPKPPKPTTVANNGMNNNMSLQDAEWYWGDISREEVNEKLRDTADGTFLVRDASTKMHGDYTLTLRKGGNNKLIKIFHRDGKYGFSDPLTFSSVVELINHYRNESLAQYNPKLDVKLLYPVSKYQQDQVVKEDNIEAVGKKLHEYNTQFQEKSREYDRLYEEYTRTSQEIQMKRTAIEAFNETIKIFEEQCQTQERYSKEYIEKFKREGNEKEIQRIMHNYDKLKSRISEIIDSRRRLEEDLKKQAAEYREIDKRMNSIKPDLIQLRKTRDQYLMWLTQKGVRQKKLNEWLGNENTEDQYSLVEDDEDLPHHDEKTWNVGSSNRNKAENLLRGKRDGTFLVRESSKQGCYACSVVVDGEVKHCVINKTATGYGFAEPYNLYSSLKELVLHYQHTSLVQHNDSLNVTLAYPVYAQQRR

compound	IC50
CC(Nc1ncnc2[nH]cnc12)c1cc(Cl)c2cccnc2c1N1CCN(C2CCC2)CC1 (stereo not shown) [Example 69, tris(trifluoroacetate)]	< 50 nM
CC(Nc1ncnc2[nH]cnc12)c1cc(Cl)c2conc2c1-c1cccc(F)c1 (stereo not shown) [Example 104]	< 50 nM
CC(Nc1ncnc2[nH]cnc12)c1cc(Cl)c2cccnc2c1N1CCN(C(=O)N(C)C)CC1 (stereo not shown) [Example 88, bis(trifluoroacetate)]	< 50 nM
COC1CCN(c2c(C(C)Nc3ncnc4[nH]cnc34)cc(Cl)c3cccnc23)CC1 (stereo not shown) [Example 71, bis(trifluoroacetate)]	50 to 100 nM

###

molecular target: PI3Kδ (p110δ/p85α) (Homo sapiens); construct: purchased Millipore (Bedford, Mass.); assay: PI3Kδ scintillation proximity assay; assay type: biochemical
Measured IC50 accompanies every entry in the list below.
assay.readout: IC50

compound	observed.result
CC(Nc1ncnc2[nH]cnc12)c1cc(Cl)c2cn[nH]c2c1-c1cc(F)cc(F)c1 (stereo not shown)	< 50 nM
CC(Nc1ncnc2[nH]cnc12)c1cc(F)c2ccnnc2c1-c1cccc(F)c1 (single isomer, unassigned) [Example 20]	< 50 nM
CC(Nc1ncnc2[nH]cnc12)c1cc(Cl)c2ccnnc2c1-c1ccccc1F (single isomer, unassigned) [Example 28]	< 50 nM
CC(Nc1ncnc2[nH]cnc12)c1cc(Cl)c2cccnc2c1N1CCN(C(=O)C2CCC2)CC1 (stereo not shown) [Example 86, bis(trifluoroacetate)]	< 50 nM
CC(Nc1ncnc2[nH]cnc12)c1cc(Cl)c2cccnc2c1N1CCC(C#N)CC1 (stereo not shown) [Example 59, bis(trifluoroacetate)]	100 to 250 nM
CC(Nc1ncnc2[nH]cnc12)c1cc(Cl)c2cccnc2c1N1CCN(CCO)CC1 (stereo not shown) [Example 58, tris(trifluoroacetate)]	< 50 nM
CC(Nc1ncnc2[nH]cnc12)c1cc(Cl)c2cccnc2c1N1CCC(CO)CC1 (stereo not shown) [Example 64, tris(trifluoroacetate)]	100 to 250 nM

###

biological target: PI3Kδ (p110δ/p85α) (Homo sapiens); construct: purchased Millipore (Bedford, Mass.); assay: PI3Kδ scintillation proximity assay; assay type: biochemical
Counter-ions that a name gives are not always drawn.

molecule	target.under.test	IC50
COC(=O)NC1CCN(c2c(C(C)Nc3ncnc4[nH]cnc34)cc(Cl)c3cccnc23)CC1 (stereo not shown) [Example 83, bis(trifluoroacetate)]	PI3Kδ (p110δ/p85α) (Homo sapiens)	< 50 nM
CC(Nc1ncnc2[nH]cnc12)c1cc(C#N)c2cccnc2c1-c1cccc(F)c1 (stereo not shown) [Example 52]	PI3Kδ (p110δ/p85α) (Homo sapiens)	50 to 100 nM
CC(=O)NC1CCN(c2c(C(C)Nc3ncnc4[nH]cnc34)cc(Cl)c3cccnc23)CC1 (stereo not shown) [Example 82, bis(trifluoroacetate)]	PI3Kδ (p110δ/p85α) (Homo sapiens)	< 50 nM
Fc1cccc(-c2c(CNc3ncnc4[nH]cnc34)cc(Cl)c3ccnnc23)c1 [Example 31, trifluoroacetate]	PI3Kδ (p110δ/p85α) (Homo sapiens)	500 to 1000 nM
CC(Nc1ncnc2[nH]cnc12)c1cc(F)c2ccnnc2c1-c1cc(F)cc(F)c1 (single isomer, unassigned) [Example 30, trifluoroacetate]	PI3Kδ (p110δ/p85α) (Homo sapiens)	> 1000 nM
CC(Nc1ncnc2[nH]cnc12)c1cc(F)c2ccnnc2c1-c1cccc(F)c1 (stereo not shown) [Example 19]	PI3Kδ (p110δ/p85α) (Homo sapiens)	100 to 250 nM
Cc1cc(C(C)Nc2ncnc3[nH]cnc23)c(-c2cc(F)cc(F)c2)c2nnccc12 (single isomer, unassigned) [Example 38]	PI3Kδ (p110δ/p85α) (Homo sapiens)	< 50 nM

###

Overview of recorded pIC50 for various compounds
target: PI3Kδ (p110δ/p85α) (Homo sapiens); construct: purchased Millipore (Bedford, Mass.); assay: PI3Kδ scintillation proximity assay; type: biochemical; conditions: separated isomer, 1st peak
pIC50: −log10 of the molar value.

compound	pIC50
CC(Nc1ncnc2[nH]cnc12)c1cc(Cl)c2cccnc2c1N1CC[C@H](NS(C)(=O)=O)C1 (stereo partly drawn) [Example 80, tris(trifluoroacetate)]	6.30 to 6.60
COC1CCCN(c2c(C(C)Nc3ncnc4[nH]cnc34)cc(Cl)c3cccnc23)C1 (stereo not drawn) [Example 67, tris(trifluoroacetate)]	6.60 to 7.00
CC(Nc1ncnc2[nH]cnc12)c1cc(F)c2cccnc2c1N1CC[C@@H](O)C1 (stereo partly drawn) [Example 53]	< 6.00
CCC(=O)N[C@H]1CCN(c2c(C(C)Nc3ncnc4[nH]cnc34)cc(Cl)c3cccnc23)C1 (stereo partly drawn) [Example 77, tris(trifluoroacetate)]	< 6.00
CC(Nc1nc(N)nc2[nH]cnc12)c1ccc2ccccc2c1-c1cccc(F)c1 (stereo not drawn) [Example 4]	6.00 to 6.30
CC(Nc1ncnc2[nH]cnc12)c1cc(F)c2cccnc2c1-c1cccc(F)c1 (stereo not drawn) [Example 102]	> 7.30
CC(Nc1ncnc2[nH]cnc12)c1cc(Cl)c2cccnc2c1-c1ccccc1F (stereo not drawn) [Example 10, bis-trifluoroacetate]	6.60 to 7.00
COC(=O)N[C@H]1CCN(c2c(C(C)Nc3ncnc4[nH]cnc34)cc(Cl)c3cccnc23)C1 (stereo partly drawn) [Example 79, tris(trifluoroacetate)]	7.00 to 7.30
CC(Nc1ncnc2[nH]cnc12)c1cc(Cl)c2cccnc2c1N1CCC[C@H](O)C1 (stereo partly drawn) [Example 48]	> 7.30
CC(Nc1ncnc2[nH]cnc12)c1cc(Cl)c2cccnc2c1N1CC[C@@H](O)C1 (stereo partly drawn) [Example 12, bis-trifluoroacetate]	< 6.00
CC(Nc1ncnc2[nH]cnc12)c1cc(Cl)c2cccnc2c1N1CCCC(CO)C1 (stereo not drawn) [Example 63, tris(trifluoroacetate)]	6.60 to 7.00
CC(Nc1ncnc2[nH]cnc12)c1ccc2cccnc2c1-c1ccccc1F (stereo not drawn) [Example 7, bis-trifluoroacetate]	< 6.00
COC1CCN(c2c(C(C)Nc3ncnc4[nH]cnc34)cc(Cl)c3cccnc23)C1 (stereo not drawn) [Example 68, tris(trifluoroacetate)]	7.00 to 7.30
CC(C)C(=O)N[C@H]1CCN(c2c(C(C)Nc3ncnc4[nH]cnc34)cc(Cl)c3cccnc23)C1 (stereo partly drawn) [Example 78, tris(trifluoroacetate)]	< 6.00
CC(Nc1ncnc2[nH]cnc12)c1cc(Cl)c2cccnc2c1N1CCC(c2ccccc2)C1 (stereo not drawn) [Example 76, tris(trifluoroacetate)]	6.30 to 6.60

###

target: PI3Kδ (p110δ/p85α) (Homo sapiens, UniProt O00329); construct: purchased Millipore (Bedford, Mass.); assay: PI3Kδ scintillation proximity assay; format: biochemical
Where a name gives a salt, the structure may show the parent alone.
assay.readout: IC50

compound	assay.readout	observed.result
CC(Nc1ncnc2[nH]cnc12)c1cc(Cl)c2cccnc2c1N1CCN(C(=O)c2ccn(C)n2)CC1 (centres unmarked) [Example 101, bis(trifluoroacetate)]	IC50	< 50 nM
CC(Nc1ncnc2[nH]cnc12)c1cc(Cl)c2cnn(C)c2c1-c1cc(F)cc(F)c1 (centres unmarked)	IC50	< 50 nM
CC(Nc1ncnc2[nH]cnc12)c1cc(Cl)c2cccnc2c1N1CC[C@H](F)C1 (mixture of isomers) [Example 57, bis(trifluoroacetate)]	IC50	250 to 500 nM
CC(Nc1ncnc2[nH]cnc12)c1cc(Cl)c2cccnc2c1N1CCCC(F)C1 (centres unmarked) [Example 61, bis(trifluoroacetate)]	IC50	250 to 500 nM
CC(Nc1ncnc2[nH]cnc12)c1cc(Cl)c2ccnnc2c1-c1cc(F)cc(F)c1 (single isomer, unassigned) [Example 23]	IC50	< 50 nM
CCC(Nc1ncnc2[nH]cnc12)c1cc(Cl)c2ccnnc2c1-c1cccc(F)c1 (single isomer, unassigned) [Example 32]	IC50	> 1000 nM
CC(Nc1ncnc2[nH]cnc12)c1cc(Cl)c2cccnc2c1N1CCN(C2CC2)CC1 (centres unmarked) [Example 66, tris(trifluoroacetate)]	IC50	< 50 nM
CC(Nc1ncnc2[nH]cnc12)c1cc(Cl)c2ccnnc2c1-c1cncc(F)c1 (single isomer, unassigned) [Example 34, trifluoroacetate]	IC50	50 to 100 nM

###

biological target: PI3Kδ (p110δ/p85α) (Homo sapiens, UniProt O00329); construct: purchased Millipore (Bedford, Mass.); experiment: PI3Kδ scintillation proximity assay; format: biochemical
pIC50: −log10 of the molar value.
Reported pIC50 values follow for various compounds
assay.readout: pIC50

compound	target.under.test	assay.readout	observed.result
CC(Nc1ncnc2[nH]cnc12)c1cc(Cl)c2cccnc2c1N1CCC(N2CCCCC2)CC1 (centres unmarked) [Example 70, tris(trifluoroacetate)]	PI3Kδ (p110δ/p85α) (Homo sapiens, UniProt O00329)	pIC50	7.00 to 7.30
CC(Nc1ncnc2[nH]cnc12)c1cc(Cl)c2ccnnc2c1-c1cc(F)cc(F)c1 (single isomer, unassigned) [Example 24]	PI3Kδ (p110δ/p85α) (Homo sapiens, UniProt O00329)	pIC50	< 6.00
CC(Nc1ncnc2[nH]cnc12)c1cc(Cl)c2ccncc2c1-c1cccc(F)c1 (centres unmarked) [Example 56]	PI3Kδ (p110δ/p85α) (Homo sapiens, UniProt O00329)	pIC50	> 7.30
CCc1cc(C(C)Nc2ncnc3[nH]cnc23)c(-c2cccc(F)c2)c2ncccc12 (centres unmarked) [Example 51, bis(trifluoroacetate)]	PI3Kδ (p110δ/p85α) (Homo sapiens, UniProt O00329)	pIC50	7.00 to 7.30
CC(Nc1ncnc2[nH]cnc12)c1cc(Cl)c2cccnc2c1N1CCN(C(=O)C2CC2)CC1 (centres unmarked) [Example 84, bis(trifluoroacetate)]	PI3Kδ (p110δ/p85α) (Homo sapiens, UniProt O00329)	pIC50	> 7.30
Cc1cc(C(C)Nc2ncnc3[nH]cnc23)c(-c2cccc(F)c2)c2ncccc12 (centres unmarked) [Example 50]	PI3Kδ (p110δ/p85α) (Homo sapiens, UniProt O00329)	pIC50	6.60 to 7.00
CC(Nc1ncnc2[nH]cnc12)c1cc(Cl)c2cccnc2c1N1CCN(C(=O)c2ccccc2F)CC1 (centres unmarked) [Example 93, bis(trifluoroacetate)]	PI3Kδ (p110δ/p85α) (Homo sapiens, UniProt O00329)	pIC50	6.30 to 6.60
Cc1noc(C)c1C(=O)N1CCN(c2c(C(C)Nc3ncnc4[nH]cnc34)cc(Cl)c3cccnc23)CC1 (centres unmarked) [Example 100, bis(trifluoroacetate)]	PI3Kδ (p110δ/p85α) (Homo sapiens, UniProt O00329)	pIC50	> 7.30
CC(Nc1ncnc2[nH]cnc12)c1cc(Cl)c2cccnc2c1N1CCN(C(=O)c2ccccn2)CC1 (centres unmarked) [Example 95, tris(trifluoroacetate)]	PI3Kδ (p110δ/p85α) (Homo sapiens, UniProt O00329)	pIC50	> 7.30
COCC(=O)N1CCN(c2c(C(C)Nc3ncnc4[nH]cnc34)cc(Cl)c3cccnc23)CC1 (centres unmarked) [Example 87, bis(trifluoroacetate)]	PI3Kδ (p110δ/p85α) (Homo sapiens, UniProt O00329)	pIC50	> 7.30
COC[C@H]1CCCN1c1c(C(C)Nc2ncnc3[nH]cnc23)cc(Cl)c2cccnc12 (mixture of isomers) [Example 14, bis-trifluoroacetate]	PI3Kδ (p110δ/p85α) (Homo sapiens, UniProt O00329)	pIC50	6.60 to 7.00
CC(Nc1ncnc2[nH]cnc12)c1nc(C#N)c2ccccc2c1-c1cccc(F)c1 (centres unmarked) [Example 54]	PI3Kδ (p110δ/p85α) (Homo sapiens, UniProt O00329)	pIC50	7.00 to 7.30
CC(Nc1ncnc2[nH]cnc12)c1cc(Cl)c2cn[nH]c2c1-c1cccc(F)c1 (centres unmarked) [Example 105]	PI3Kδ (p110δ/p85α) (Homo sapiens, UniProt O00329)	pIC50	> 7.30
CC(Nc1ncnc2[nH]cnc12)c1ccc2cccnc2c1-c1cncc(F)c1 (centres unmarked) [Example 9, tris-trifluoroacetate]	PI3Kδ (p110δ/p85α) (Homo sapiens, UniProt O00329)	pIC50	6.00 to 6.30

Source: patent US8680108B2
